- Tested on: 857933-349-R-J2-PDC complex spheroids, viability;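 further: spheroids exposed to compounds for one week before readout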
- experimental protocol: Anticancer human tumor 857933-349-R-J2-PDC patient-derived colon adenocarcinoma cell line growth inhibition [GQUAD]; active means viability on the fitted dose curve at most 10% of control; inactive means the rest
- assay context: second compound 10 µM; first compound 0.0316 µM
// one of active, inactive, no free text

O=c1[nH]cc(F)c(=O)[nH]1 + Cc1[nH]c2ccc(F)cc2c1-c1nc2c3cccnc3c3ncccc3c2[nH]1 : inactive
CCc1c2c(nc3ccc(O)cc13)-c1cc3c(c(=O)n1C2)COC(=O)[C@]3(O)CC + Cc1[nH]c2ccc(F)cc2c1-c1nc2c3cccnc3c3ncccc3c2[nH]1 : inactive
Cc1[nH]c2ccccc2c1CCNCc1ccc(/C=C/C(=O)NO)cc1 + CN(C)c1ccc(Nc2c3ccc(NC(=O)CCN4CCCC4)cc3nc3cc(NC(=O)CCN4CCCC4)ccc23)cc1 : inactive
Cc1[nH]c2ccccc2c1CCNCc1ccc(/C=C/C(=O)NO)cc1 + Cc1cnc(CNC(=O)c2c(=O)c3ccc(N4CCCN(C)CC4)nc3n3c2sc2ccccc23)cn1 : active
C#Cc1c(F)ccc2cc(O)cc(-c3ncc4c(N5CC6CCC(C5)N6)nc(OCC56CCCN5CC(F)C6)nc4c3F)c12 (stereo unspecified) + CN(C)c1ccc(Nc2c3ccc(NC(=O)CCN4CCCC4)cc3nc3cc(NC(=O)CCN4CCCC4)ccc23)cc1 : inactive
CCCS(=O)(=O)Nc1ccc(F)c(C(=O)c2c[nH]c3ncc(-c4ccc(Cl)cc4)cc23)c1F + Cc1[nH]c2ccc(F)cc2c1-c1nc2c3cccnc3c3ncccc3c2[nH]1 : inactive

Query: recorded result category for CC1COCCN1c1cc(C2(O)CC3CCC(C2)O3)c2cnn(-c3ccn[nH]3)c2n1 (stereo unspecified) + Cc1cnc(CNC(=O)c2c(=O)c3ccc(N4CCCN(C)CC4)nc3n3c2sc2ccccc23)cn1 in this test
active

Recorded call for O=C(c1cc(Cc2n[nH]c(=O)c3ccccc23)ccc1F)N1CCN(C(=O)C2CC2)CC1 + CN(C)c1ccc(Nc2c3ccc(NC(=O)CCN4CCCC4)cc3nc3cc(NC(=O)CCN4CCCC4)ccc23)cc1 ?
inactive

For Cn1ncnc1[C@H]1c2n[nH]c(=O)c3cc(F)cc(c23)N[C@@H]1c1ccc(F)cc1 + Cc1[nH]c2ccc(F)cc2c1-c1nc2c3cccnc3c3ncccc3c2[nH]1 , which call appears in the assay record?
inactive

Please share the test call associated with O=C(NO)c1cnc(N2CCN(S(=O)(=O)c3ccc4ccccc4c3)CC2)nc1 + Cc1[nH]c2ccc(F)cc2c1-c1nc2c3cccnc3c3ncccc3c2[nH]1 .
inactive

Which outcome did this test record for the molecule COc1ccc([C@@H](O)c2cc(-c3ncnc4cc(N5CCOCC5)ccc34)c(F)cc2Cl)nn1 + Cc1[nH]c2ccc(F)cc2c1-c1nc2c3cccnc3c3ncccc3c2[nH]1 ?
inactive

In this assay, the call recorded for CC1COCCN1c1cc(C2(O)CC3CCC(C2)O3)c2cnn(-c3ccn[nH]3)c2n1 (stereo unspecified) + CN(C)c1ccc(Nc2c3ccc(NC(=O)CCN4CCCC4)cc3nc3cc(NC(=O)CCN4CCCC4)ccc23)cc1 was what?
inactive

Recorded test outcome, item CC(C)(O)C1CCC(Nc2ccc3ncc(-c4cccc(C(F)(F)F)c4)n3n2)CC1 (stereo unspecified) + Cc1cnc(CNC(=O)c2c(=O)c3ccc(N4CCCN(C)CC4)nc3n3c2sc2ccccc23)cn1
active

Per the records of this test, what outcome belongs to Cc1cccc(N(C)C(=O)C2C(O)CCN2c2nc(C)cc(C(F)(F)F)c2C#N)c1 (stereo unspecified) + CN(C)c1ccc(Nc2c3ccc(NC(=O)CCN4CCCC4)cc3nc3cc(NC(=O)CCN4CCCC4)ccc23)cc1 ?
inactive

I would be grateful if you could indicate the recorded call for COc1cccc2c1C(=O)c1c(O)c3c(c(O)c1C2=O)CC(O)(C(=O)CO)CC3OC1CC(N)C(O)C(C)O1 (stereo unspecified) + Cc1[nH]c2ccc(F)cc2c1-c1nc2c3cccnc3c3ncccc3c2[nH]1 .
inactive

Could you check what this test reported for CCc1c2c(nc3ccc(O)cc13)-c1cc3c(c(=O)n1C2)COC(=O)[C@]3(O)CC + Cc1cnc(CNC(=O)c2c(=O)c3ccc(N4CCCN(C)CC4)nc3n3c2sc2ccccc23)cn1 ?
active

State the result this test recorded for COc1cc(C2c3cc4c(cc3C(OC3OC5COC(C)OC5C(O)C3O)C3COC(=O)C23)OCO4)cc(OC)c1O (stereo unspecified) + CN(C)c1ccc(Nc2c3ccc(NC(=O)CCN4CCCC4)cc3nc3cc(NC(=O)CCN4CCCC4)ccc23)cc1 .
inactive
